assay: gradient 5% acetonitrile 3 min, to 50% in 2 min, to 85% in 15 min, held 3 min, 100 µL/min; details: column: Zorbax Extend-C18 2.1 x 50 mm; eluents: water / acetonitrile, 0.1% formic acid
RP-LC retention time below 900 s gives False; RP-LC retention time at or above it gives True.

1) Cc1ccc2oc(C(=O)Nc3nccs3)c(C)c2c1
True
2) CCOc1nc2ccccc2nc1N1CCCC(C(=O)Nc2cccc3ccccc23)C1 (stereo not given)
True
3) Cn1cc(CCN2CCC(C(=O)NCc3cccs3)CC2)c2cccnc21
False
4) O=C(CN1CCC2(CC1)N=C(c1ccc(F)cc1)C(=O)N2)Nc1cc(F)ccc1F
False
5) Fc1ccc(-c2nc(-c3ccc(-n4ccnc4)nc3)no2)cc1F
False
6) CCOC(=O)c1c(C)n(C)c2cc(Br)c(OC)cc12
True
7) CC(C)OCCCNC(=O)c1cn(C)cc2c(=O)n(-c3ccccc3)nc1-2
False

====

Entries and their RP-LC retention time values follow.
assay: gradient 5% acetonitrile 3 min, to 50% in 2 min, to 85% in 15 min, held 3 min, 100 µL/min; conditions: column: Zorbax Extend-C18 2.1 x 50 mm; eluents: water / acetonitrile, 0.1% formic acid
outcome_measure: RP-LC retention time (s)

1. Cc1cc(-c2csc(S(=O)(=O)NCC3CCN(Cc4ccc(Cl)cc4)CC3)c2)on1
733
2. CC(C)c1ccc(OCC(O)Cn2c(C3CC3)nc3ccccc32)cc1 (centres undefined)
788
3. CCN(CC)c1ccc(NC(=O)CSc2ccc(N3CCCC(C(=O)NC4CC4)C3)nn2)c(C)c1 (centres undefined)
529
4. Cn1c(=O)c2nc(SCCC(=O)Nc3ccc(Br)cc3F)n(C)c2n(C)c1=O
806
5. Cc1nn2c(CNC(=O)c3cccc(C(F)(F)F)c3)c(C)nc2s1
688
6. O=C(NCCOc1ccc2nnc(-c3cccc(F)c3)n2n1)c1cc(=O)c2ccccc2o1
682
7. CCOC(=O)CNC(=O)Cn1c(-c2cccnc2)nc2ccccc21
608
8. Cn1cc(-c2cc3n(n2)CCC(=O)N3CC(=O)NCCCN2CCOCC2)c2ccccc21
603
9. CC(=O)Nc1cccc(-c2nc(-c3ccc4c(c3)nnn4C3CCCC3)no2)c1
1010

====

test: gradient 5% acetonitrile 3 min, to 50% in 2 min, to 85% in 15 min, held 3 min, 100 µL/min; conditions: column: Zorbax Extend-C18 2.1 x 50 mm; eluents: water / acetonitrile, 0.1% formic acid
Entries and their RP-LC retention time values follow.
outcome_measure: RP-LC retention time (s)

1) O=C(Cn1cccc1-c1nc(-c2ccccc2)cs1)N1CCOCC1
934
2) O=C(Cc1ccc2ccccc2c1)Nc1nnc(-c2ccno2)o1
558
3) Cc1cc(C(=O)NCC23CCCC=C2NC(=O)CC3)nn1C (stereo not given)
641
4) CC1CCN(c2ccc(CNc3nc4ccncc4n(C(C)C)c3=O)cc2)CC1
574
5) CC1(C(=O)NCc2cc(F)ccc2F)CCCCC(=O)N1 (stereo not given)
674
6) CSc1ccc(-c2nc3ccc(C)cn3c2Nc2ccc(Cl)cc2)cc1
693
7) Cc1cc(C)cc(C(=O)NC(Cc2ccccc2)c2nnc(N3CCSCC3)o2)c1 (stereo not given)
918
8) CC(Oc1cccc(Cl)c1)c1nc(-c2ccc3ncn(C)c3c2)no1 (stereo not given)
827
9) Cn1c(=O)n(C)c2cc(CNc3ccc(Cl)cc3Cl)ccc21
1070
10) O=C(O)c1ccc(N2CCN(c3ccccn3)CC2)c(NS(=O)(=O)c2ccc(F)c(F)c2)c1
649
11) CCCN1CCN(c2ncc3c(n2)CCN(Cc2cccc(Br)c2)C3)CC1
565
12) CN1CCCC2C(c3ccccc3)C(C3=NCCCC3)C(c3ccccc3)CC21 (stereo not given)
589
13) Cc1ccc2ncc(C(=O)NCCCOC(C)C)c(=O)n2c1
656
14) O=C(NCc1ccccc1)C1CCN(C(=O)C2Sc3ccccc3NC2=O)CC1 (stereo not given)
741
15) Oc1ccc2c3c1O[C@H]1c4oc5ccccc5c4C[C@@]4(O)C(C2)N(CC2CC2)CCC314 (stereo not given in full)
702
16) COCCC(=O)Nc1c(-c2ccccc2)nc2sc(N3CCCCC3)nn12
751
17) O=C(Nc1cnc(-c2cccnc2)nc1)C1CCCCC1
681
18) Cc1ccccc1-n1ccn(Cc2nc(-c3ccccc3)no2)c(=O)c1=O
809
19) Cn1c(CCNC(=O)c2ccc(F)c(F)c2)nc2cccnc21
617
20) O=c1ccc(-c2ccc3c(c2)OCO3)nn1Cc1nc(-c2ccccc2)no1
939
21) CSc1ncccc1C(=O)N1CCc2cc(-c3ccno3)ccc21
871
22) COCCNC(=O)NCc1ccc2c(c1)N(C(=O)c1ccccc1)CC2
696
23) NC(=O)Nc1cc(-c2cccc(F)c2)sc1C(=O)N[C@H]1CCCNC1
650
24) CCc1noc(-c2cccn2Cc2cc(F)cc(F)c2)n1
1160
25) Cc1cccc(C)c1NC(=O)CN1CCCC1=O
697
26) O=C(Nc1ccc(C2(C(=O)N3CCN(c4ccccc4F)CC3)CCC2)cc1)C1CC1
944
27) CCOC(=O)c1noc2ncnc(N(C)c3cccc(Cl)c3)c12
965
28) Cc1ccc(CN2C(=O)C3(CCOCC3)CC2c2nnnn2C(C)(C)C)cc1 (stereo not given)
783
29) O=C(Nc1ccc(N2CCOCC2)cc1)C1CCCN(c2ccnc(-c3cccc(F)c3)n2)C1 (stereo not given)
649
30) CC(C)n1cnc2cc(CNC(=O)Cc3cccc(F)c3)ccc21
607
31) Cc1ccc(CN2CCC(CNS(=O)(=O)c3ccc4c(c3)CCCC(=O)N4)CC2)cc1
762
32) O=C(NCc1nc(-c2ccc(NS(=O)(=O)c3ccccc3)cc2)no1)c1cccs1
832
33) COc1cccc(NC(=O)c2c(O)c3cccnc3n(-c3ccc(F)cc3)c2=O)c1
1200
34) CCOC(=O)c1oc2ccc(S(=O)(=O)N3CCC(c4noc(C5CC5)n4)C3)cc2c1C (stereo not given)
1000
35) Cc1csc2nc(CSc3nnc(-c4ccccc4F)o3)cc(=O)n12
799
36) CCOC(=O)c1c(NCCC(C)C)c2ccc(Cl)cc2[nH]c1=O
900
37) O=C(N[C@@H]1CN(c2ncccn2)C[C@H]1CO)C1CC=CC1
567
38) Cc1cc(=O)n(CC(=O)N2CCc3ccccc32)c(N2CCCC2)n1
664
39) O=C(Cc1ccccc1)N1CCC(Nc2cccn3ncnc23)CC1
713
40) CCN(CC)CCCNC(=O)CN1C(=O)C2CCCCN2c2ccc(C(=O)N(C)C)cc21 (stereo not given)
595
